- target: TEAD2 TAZ (amino acids 13-57) (Homo sapiens, UniProt Q15562)
- Sequence (Q15562 217-447): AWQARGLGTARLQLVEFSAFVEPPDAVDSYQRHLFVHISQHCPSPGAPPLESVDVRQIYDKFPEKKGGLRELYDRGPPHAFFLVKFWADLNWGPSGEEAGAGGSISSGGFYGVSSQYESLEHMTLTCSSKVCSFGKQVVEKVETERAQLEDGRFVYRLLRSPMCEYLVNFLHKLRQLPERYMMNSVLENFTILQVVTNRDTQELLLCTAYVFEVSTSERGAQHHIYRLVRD
- method.description: TEAD2-TAZ HTRF (TR-FRET) protein-protein interaction assay
- experimental.context: TEAD2-TAZ HTRF, TR-FRET 665 nm/615 nm; read-out: TEAD2 TAZ HTRF combined: EC50
- Method: Purified His-tagged TEAD protein (YAP Binding Domain, amino acids 217-447) is pre-incubated with Europium labelled anti-His antibody tracer (Perkin Elmer Cat #AD0110). […] After 60 minutes, the plate is read on a plate reader using TR-FRET mode with wavelengths of 665 nm/615 nm. […] The potency of compounds as YAP:TEAD or TAZ:TEAD protein-protein interaction (PPi) inhibitors is determined by an IC50 or EC50 value generated using a non-linear four parameter curve fit.
Quick reference: EC50 of the listed items.
measured.parameter: EC50 (nM)

CC1CCN1C(=O)c1nn2c(=O)cc(-c3ccc(C4CCCCC4)cc3)[nH]c2c1C(=O)N1CC(CF)C1 (single isomer, unassigned) [Enantiomer A, Example 33] :: 20
CC(C)c1ccnc(-c2nn3c(=O)cc(-c4ccc(C5CCCCC5)cc4)[nH]c3c2C(=O)N2CC(CF)C2)n1 :: 10
O=C(c1c(C2CNCCO2)nn2c(=O)cc(-c3ccc(C4CCCCC4)cc3)[nH]c12)N1CC(CF)C1 (single isomer, unassigned) [Enantiomer A, Example 63] :: 40
COc1ccnc(-c2nn3c(=O)cc(-c4ccc(C5CCCCC5)cc4)[nH]c3c2C(=O)N2CC(CF)C2)n1 :: 10
O=C(c1c(-c2ncccn2)nn2c(=O)cc(-c3ccc(C4CCCCC4)cc3)[nH]c12)N1CC(CF)C1 :: 10
C[C@@H]1[C@H](CF)CN1C(=O)c1c(-c2cnccn2)nn2c(=O)cc(-c3ccc(C4CCCCC4)cc3)[nH]c12 (single isomer, unassigned) [Isomer B, Example 39] :: 190
C[C@@H]1[C@H](CF)CN1C(=O)c1c(C(=O)N(C)C)nn2c(=O)cc(-c3ccc(C4CCCCC4)cc3)[nH]c12 :: 710
CCn1cnc(-c2nn3c(=O)cc(-c4ccc(C5CCCCC5)cc4)[nH]c3c2C(=O)N2CC(CF)C2)c1 :: 20
CCCCc1ccc(-c2cc(=O)n3nc(-c4nccnc4C)c(C(=O)N4CC(CF)C4)c3[nH]2)cc1 :: 10
CCCCCCC/C=C/c1cc(=O)n2nc(-c3nccnc3C)c(C(=O)N3C[C@H](CF)[C@@H]3C)c2[nH]1 :: 10
O=C(c1c(-c2ccccc2)nn2c(=O)cc(-c3ccc(C4CCCCC4)cc3)[nH]c12)N1CC(CF)C1 :: 20
Cc1nccnc1-c1nn2c(=O)cc(-c3ccc(OC(c4ccccc4)C(F)(F)F)cc3)[nH]c2c1C(=O)N1C[C@H](CF)[C@@H]1C (single isomer, unassigned) [Final product obtained using Enantiomer A from Step 1, Example 56] :: 60
C[C@H]1[C@@H](CF)CN1C(=O)c1c(C(=O)N(C)C)nn2c(=O)cc(-c3ccc(C4CCCCC4)cc3)[nH]c12 :: 10
CN(C)C(=O)c1nn2c(=O)cc(-c3ccc(C4CCCCC4)c(F)c3)[nH]c2c1C(=O)N1CC(CF)C1 :: 10
O=C(c1c(-c2nccc(C(F)(F)F)n2)nn2c(=O)cc(-c3ccc(C4CCCCC4)cc3)[nH]c12)N1CC(CF)C1 :: 20
CC(C)(C)c1ccc(COc2cc(=O)n3nc(-c4cnccn4)c(C(=O)N4CC(CF)C4)c3[nH]2)cc1 :: 20
O=C(c1c(-c2cnco2)nn2c(=O)cc(-c3ccc(C4CCCCC4)cc3)[nH]c12)N1CC(CF)C1 :: 20
Cc1nccnc1-c1nn2c(=O)cc(-c3ccc(C4(F)CCCCC4)cc3)[nH]c2c1C(=O)N1CC(CF)C1 :: 30
Cc1nccnc1-c1nn2c(=O)cc(-c3ccc(C4CCCCC4)c(F)c3)[nH]c2c1C(=O)N1CC(CF)C1 :: 10
O=C(c1c(C2CNCCO2)nn2c(=O)cc(-c3ccc(C4CCCCC4)cc3)[nH]c12)N1CC(CF)C1 (single isomer, unassigned) [Enantiomer B, Example 63] :: 30
Cc1nccnc1-c1nn2c(=O)cc(-c3ccc(C(F)(F)C4CCCC4)cc3)[nH]c2c1C(=O)N1CC(CF)C1 :: 10
Cc1nccnc1-c1nn2c(=O)cc(-c3ccc(C4CCCCC4)cc3)[nH]c2c1C(=O)N(C)C :: 20
O=C(c1c(-c2cccnc2)nn2c(=O)cc(-c3ccc(C4CCCCC4)cc3)[nH]c12)N1CC(CF)C1 :: 20
C[C@H]1[C@@H](CF)CN1C(=O)c1c(-c2ncccn2)nn2c(=O)cc(-c3ccc(CC4CCCC4)cc3)[nH]c12 (single isomer, unassigned) [Isomer A, Example 43] :: 10
Cc1nccnc1-c1nn2c(=O)cc(-c3ccc(-c4ccccc4)cc3)[nH]c2c1C(=O)N1CC(CF)C1 :: 10

----------
Quick reference: TEAD2 TAZ HTRF combined: Max % Inhibition of the listed items.
- target: TEAD2 TAZ (amino acids 13-57) (Homo sapiens, UniProt Q15562)
- method.description: TEAD2-TAZ HTRF (TR-FRET) protein-protein interaction assay
- Type: binding
- experimental.context: TEAD2, TAZ peptide, HTRF
measured.parameter: TEAD2 TAZ HTRF combined: Max % Inhibition (%)

Cc1cncc(-c2nn3c(=O)cc(-c4ccc(C5CCCCC5)cc4)[nH]c3c2C(=O)N2CC(CF)C2)n1 :: 66.5
C[C@H](CO)c1nn2c(=O)cc(-c3ccc(C4CCCCC4)cc3)[nH]c2c1C(=O)N1CC(CF)C1 (single isomer, unassigned) [Enantiomer A, Example 55] :: 51.5
Cc1cnc(-c2nn3c(=O)cc(-c4ccc(C5CCCCC5)cc4)[nH]c3c2C(=O)N2CC(CF)C2)cn1 :: 72.5
O=C(c1c(-c2cnccn2)nn2c(=O)cc(-c3ccc(C4CCCCC4)c(F)c3)[nH]c12)N1CC(CF)C1 :: 55.5
O=C(c1c(-c2ncccn2)nn2c(=O)cc(-c3ccc(C4CCCCC4)cc3)[nH]c12)N1CC(CF)C1 :: 62.0
CCCCCCC/C=C/c1cc(=O)n2nc(-c3nccnc3C)c(C(=O)N3C[C@H](CF)[C@@H]3C)c2[nH]1 :: 66.0
CN(C)C(=O)c1nn2c(=O)cc(-c3ccc(CC4CCCC4)cc3)[nH]c2c1C(=O)N1CC(CF)C1 :: 66.5

----------
Quick reference: pEC50 of the listed items.
- target: TEAD2 YAP50-100 (Homo sapiens)
- Sequence (Q15562 217-447): as above
- method.description: TEAD2-YAP HTRF (TR-FRET) protein-protein interaction assay
- experimental.context: TEAD2, YAP peptide 50-100, HTRF; read-out: TEAD2 YAP50-100 HTRF combined: EC50
pEC50: −log10 of the molar value.
measured.parameter: pEC50

Cc1nccnc1-c1nn2c(=O)cc(-c3ccc(C(F)(F)C4CCCC4)cc3)[nH]c2c1C(=O)N1CC(CF)C1 :: 8.00
Cc1nccnc1-c1nn2c(=O)cc(-c3ccc(C4CCCCC4)cc3)[nH]c2c1C(=O)N1CC(CF)C1 :: 8.00
C[C@H]1[C@@H](CF)CN1C(=O)c1c(C(=O)N(C)C)nn2c(=O)cc(-c3ccc(C4CCCCC4)cc3)[nH]c12 :: 8.00
Cn1cnc(-c2nn3c(=O)cc(-c4ccc(C5CCCCC5)cc4)[nH]c3c2C(=O)N2CC(CF)C2)c1 :: 8.00
Cc1c(-c2nn3c(=O)cc(-c4ccc(C5CCCCC5)cc4)[nH]c3c2C(=O)N2CC(CF)C2)ncn1C :: 8.00
Cc1nccnc1-c1nn2c(=O)cc(-c3ccc(CC(C)(C)C)cc3)[nH]c2c1C(=O)N1C[C@H](CF)[C@@H]1C (racemic) :: 7.70
C[C@@H]1[C@H](CF)CN1C(=O)c1c(-c2ncccn2)nn2c(=O)cc(-c3ccc(CC4CCCC4)cc3)[nH]c12 (single isomer, unassigned) [Isomer B, Example 43] :: 7.70
CC1CCN1C(=O)c1nn2c(=O)cc(-c3ccc(C4CCCCC4)cc3)[nH]c2c1C(=O)N1CC(CF)C1 (single isomer, unassigned) [Enantiomer B, Example 33] :: 7.70
Cc1nccnc1-c1nn2c(=O)cc(-c3ccc(C4CCCCC4)cc3)[nH]c2c1C(=O)N(C)C :: 7.70
Cc1nccnc1-c1nn2c(=O)cc(-c3ccc(OC(c4ccccc4)C(F)(F)F)cc3)[nH]c2c1C(=O)N1C[C@H](CF)[C@@H]1C (single isomer, unassigned) [Final product obtained using Enantiomer A from Step 1, Example 56] :: 7.22
Cc1ccnc(-c2nn3c(=O)cc(-c4ccc(C5CCCCC5)cc4)[nH]c3c2C(=O)N2CC(CF)C2)n1 :: 8.00
Cc1nccnc1-c1nn2c(=O)cc(-c3ccc(C4CCCCC4)c(F)c3)[nH]c2c1C(=O)N1CC(CF)C1 :: 8.00
Cc1nccnc1-c1nn2c(=O)cc(-c3ccc(C4CCCCC4)cc3)[nH]c2c1C(=O)N1C[C@@H](CF)[C@H]1C (single isomer, unassigned) [Isomer A, Example 41] :: 7.22
C[C@H]1[C@@H](CF)CN1C(=O)c1c(-c2cnccn2)nn2c(=O)cc(-c3ccc(C4CCCCC4)cc3)[nH]c12 (single isomer, unassigned) [Isomer A, Example 39] :: 8.00
[2H]C1([2H])C([2H])([2H])C([2H])([2H])C([2H])(c2ccc(-c3cc(=O)n4nc(-c5nccnc5C)c(C(=O)N5C[C@H](CF)[C@@H]5C)c4[nH]3)cc2)C([2H])([2H])C1([2H])[2H] :: 7.70
CCCCc1ccc(-c2cc(=O)n3nc(-c4nccnc4C)c(C(=O)N4CC(CF)C4)c3[nH]2)cc1 :: 8.00
O=C(c1c(-c2ncccn2)nn2c(=O)cc(-c3ccc(C4CCCCC4)cc3)[nH]c12)N1CC(CF)C1 :: 8.00
CCN(C)C(=O)c1nn2c(=O)cc(-c3ccc(C4CCCCC4)cc3)[nH]c2c1C(=O)N1CC(CF)C1 :: 7.70
Cc1ccnc(-c2nn3c(=O)cc(-c4ccc(C5CCCCC5)cc4)[nH]c3c2C(=O)N2CC(CF)C2)c1C :: 7.70
C[C@H]1[C@@H](CF)CN1C(=O)c1c(-c2ncccn2)nn2c(=O)cc(-c3ccc(C4CCCCC4)cc3)[nH]c12 (single isomer, unassigned) [Isomer B, Example 40] :: 7.10
Cc1nccnc1-c1nn2c(=O)cc(-c3ccc(CC4CCCC4)cc3)[nH]c2c1C(=O)N1C[C@@H](CF)[C@H]1C (single isomer, unassigned) [Isomer A, Example 42] :: 7.70
Cc1nccnc1-c1nn2c(=O)cc(-c3ccc(C4CCCC4)cc3)[nH]c2c1C(=O)N1C[C@H](CF)[C@@H]1C :: 8.00
CCc1ccnc(-c2nn3c(=O)cc(-c4ccc(C5CCCCC5)cc4)[nH]c3c2C(=O)N2CC(CF)C2)n1 :: 7.70
Cc1nccnc1-c1nn2c(=O)cc(-c3ccc(OC(c4ccccc4)C(F)(F)F)cc3)[nH]c2c1C(=O)N1C[C@H](CF)[C@@H]1C (single isomer, unassigned) [Final product obtained using Enantiomer B from Step 1, Example 56] :: 7.10
